biological target: Vascular endothelial growth factor receptor 1 (Homo sapiens); experiment: Inhibition of VEGFR1 (unknown origin) by ELISA
Sequence (P17948 whole entry): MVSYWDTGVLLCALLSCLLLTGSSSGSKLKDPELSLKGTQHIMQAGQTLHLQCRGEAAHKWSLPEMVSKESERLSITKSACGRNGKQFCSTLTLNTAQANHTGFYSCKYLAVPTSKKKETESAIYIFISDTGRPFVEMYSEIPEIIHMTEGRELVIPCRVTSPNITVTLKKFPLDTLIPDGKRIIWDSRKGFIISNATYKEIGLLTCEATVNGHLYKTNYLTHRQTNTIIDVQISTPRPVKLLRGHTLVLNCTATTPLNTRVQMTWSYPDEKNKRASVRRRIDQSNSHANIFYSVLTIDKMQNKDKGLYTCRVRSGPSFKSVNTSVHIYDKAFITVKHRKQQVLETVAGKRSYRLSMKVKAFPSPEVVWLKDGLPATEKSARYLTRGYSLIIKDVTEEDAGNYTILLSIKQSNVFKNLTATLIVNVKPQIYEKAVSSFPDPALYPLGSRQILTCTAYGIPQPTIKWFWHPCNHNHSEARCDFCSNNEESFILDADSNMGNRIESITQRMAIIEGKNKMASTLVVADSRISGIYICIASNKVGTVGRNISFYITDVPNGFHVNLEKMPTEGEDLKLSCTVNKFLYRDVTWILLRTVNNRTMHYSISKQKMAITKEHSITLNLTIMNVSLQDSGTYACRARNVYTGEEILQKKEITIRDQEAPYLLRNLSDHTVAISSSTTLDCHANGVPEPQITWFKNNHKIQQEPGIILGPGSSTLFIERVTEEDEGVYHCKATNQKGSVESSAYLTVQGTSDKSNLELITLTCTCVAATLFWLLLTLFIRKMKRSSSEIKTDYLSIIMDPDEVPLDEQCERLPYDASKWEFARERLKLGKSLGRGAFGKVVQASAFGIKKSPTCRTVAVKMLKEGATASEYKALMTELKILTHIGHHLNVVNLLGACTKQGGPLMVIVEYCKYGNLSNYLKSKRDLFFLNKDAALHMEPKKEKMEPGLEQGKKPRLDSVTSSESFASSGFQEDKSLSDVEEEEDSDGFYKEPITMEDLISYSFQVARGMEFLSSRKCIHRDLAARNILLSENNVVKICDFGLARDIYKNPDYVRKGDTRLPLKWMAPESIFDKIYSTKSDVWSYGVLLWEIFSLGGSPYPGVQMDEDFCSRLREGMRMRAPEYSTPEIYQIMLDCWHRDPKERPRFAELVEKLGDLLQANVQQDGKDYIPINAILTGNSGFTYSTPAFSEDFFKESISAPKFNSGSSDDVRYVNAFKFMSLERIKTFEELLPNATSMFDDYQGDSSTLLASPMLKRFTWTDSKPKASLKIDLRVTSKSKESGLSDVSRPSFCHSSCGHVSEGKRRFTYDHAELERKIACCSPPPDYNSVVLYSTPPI
parameterMeasured: IC50

Look up IC50 for this compound: CC(C)n1cc(C(=O)Nc2cc(F)c(-c3c[nH]c4ncnc(N)c34)cc2F)c(=O)c(-c2ccc(F)cc2)c1
> 1000 nM

---

Hi there, I'd appreciate the recorded IC50 for every entry that follows.
Report only the number, with the unit nM understood.

Please state recorded IC50 (tested on Tyrosine-protein kinase receptor UFO (Homo sapiens)) of Nc1ncnc2[nH]cc(-c3cc(F)c(NC(=O)c4cn(CC5CCOCC5)cc(-c5ccc(F)cc5)c4=O)cc3F)c12
Sequence (P30530 whole entry): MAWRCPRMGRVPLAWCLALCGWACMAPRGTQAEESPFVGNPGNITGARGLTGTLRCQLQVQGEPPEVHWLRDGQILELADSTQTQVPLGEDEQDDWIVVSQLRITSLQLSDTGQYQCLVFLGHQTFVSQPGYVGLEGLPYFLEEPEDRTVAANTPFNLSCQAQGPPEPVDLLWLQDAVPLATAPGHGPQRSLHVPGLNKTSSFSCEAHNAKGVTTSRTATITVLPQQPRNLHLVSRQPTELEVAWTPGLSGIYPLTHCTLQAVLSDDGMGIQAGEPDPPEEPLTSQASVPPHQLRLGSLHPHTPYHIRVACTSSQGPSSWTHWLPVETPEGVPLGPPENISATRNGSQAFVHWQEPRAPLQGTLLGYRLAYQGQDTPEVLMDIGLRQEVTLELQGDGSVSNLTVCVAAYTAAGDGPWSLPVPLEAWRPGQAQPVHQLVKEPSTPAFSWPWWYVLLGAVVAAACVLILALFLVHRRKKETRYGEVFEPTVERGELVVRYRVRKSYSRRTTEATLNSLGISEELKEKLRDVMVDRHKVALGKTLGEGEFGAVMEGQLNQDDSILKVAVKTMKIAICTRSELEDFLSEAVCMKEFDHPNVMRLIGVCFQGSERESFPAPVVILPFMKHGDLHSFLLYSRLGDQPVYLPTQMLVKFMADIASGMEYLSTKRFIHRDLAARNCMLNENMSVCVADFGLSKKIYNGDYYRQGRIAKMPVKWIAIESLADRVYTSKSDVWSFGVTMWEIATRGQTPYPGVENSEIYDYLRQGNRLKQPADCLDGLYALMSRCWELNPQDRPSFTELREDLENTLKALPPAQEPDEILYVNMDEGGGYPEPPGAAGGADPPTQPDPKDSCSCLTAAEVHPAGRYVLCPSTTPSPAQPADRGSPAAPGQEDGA
0.4

Please state recorded IC50 (tested on Tyrosine-protein kinase receptor UFO (Homo sapiens)) of Cn1cc(-c2ccc(NC(=O)c3cn(CC4CCCO4)cc(-c4ccc(F)cc4)c3=O)cc2)c2c(N)ncnc21 (stereo not drawn)
1.2

Please state recorded IC50 (tested on Tyrosine-protein kinase receptor UFO (Homo sapiens)) of Cn1cc(C(=O)Nc2ccc(-c3cn(C)c4ncnc(N)c34)cc2)c(=O)c(-c2ccc(F)cc2)c1
5

---

target: Epidermal growth factor receptor (Homo sapiens)
Sequence (P00533 whole entry): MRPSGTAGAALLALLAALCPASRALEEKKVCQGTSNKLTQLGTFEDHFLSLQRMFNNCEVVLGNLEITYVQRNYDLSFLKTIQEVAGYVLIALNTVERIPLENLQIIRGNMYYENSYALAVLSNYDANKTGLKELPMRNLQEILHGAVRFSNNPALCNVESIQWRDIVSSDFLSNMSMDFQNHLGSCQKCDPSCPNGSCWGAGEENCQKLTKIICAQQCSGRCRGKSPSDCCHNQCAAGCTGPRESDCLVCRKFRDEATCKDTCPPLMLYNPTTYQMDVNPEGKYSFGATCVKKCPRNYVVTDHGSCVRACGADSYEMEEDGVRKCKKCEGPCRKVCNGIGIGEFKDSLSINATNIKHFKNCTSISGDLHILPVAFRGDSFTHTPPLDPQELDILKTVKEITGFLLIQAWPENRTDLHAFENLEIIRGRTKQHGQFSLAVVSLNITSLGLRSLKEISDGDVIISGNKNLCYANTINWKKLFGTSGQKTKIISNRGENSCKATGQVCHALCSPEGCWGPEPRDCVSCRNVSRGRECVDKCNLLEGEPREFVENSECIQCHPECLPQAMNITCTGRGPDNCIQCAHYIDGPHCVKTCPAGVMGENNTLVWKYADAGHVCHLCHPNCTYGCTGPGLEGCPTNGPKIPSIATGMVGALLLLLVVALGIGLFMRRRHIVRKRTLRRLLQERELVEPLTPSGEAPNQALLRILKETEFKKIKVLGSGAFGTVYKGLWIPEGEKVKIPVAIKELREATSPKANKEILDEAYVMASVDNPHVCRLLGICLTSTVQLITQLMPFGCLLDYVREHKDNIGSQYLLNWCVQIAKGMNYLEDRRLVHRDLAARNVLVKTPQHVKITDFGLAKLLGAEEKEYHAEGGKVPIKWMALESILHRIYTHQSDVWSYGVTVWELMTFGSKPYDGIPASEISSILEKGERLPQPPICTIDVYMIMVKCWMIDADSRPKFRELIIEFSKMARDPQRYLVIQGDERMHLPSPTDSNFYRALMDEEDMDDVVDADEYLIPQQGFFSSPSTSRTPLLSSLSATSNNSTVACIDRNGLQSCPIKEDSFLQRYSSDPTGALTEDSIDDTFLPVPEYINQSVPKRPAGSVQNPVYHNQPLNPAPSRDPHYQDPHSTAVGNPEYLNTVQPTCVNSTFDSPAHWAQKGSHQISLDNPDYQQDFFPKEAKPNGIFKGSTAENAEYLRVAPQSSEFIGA
pIC50: −log10 of the molar value.
parameterMeasured: pIC50

Look up pIC50 for this compound: CC(C)n1cc(C(=O)Nc2cc(F)c(-c3c[nH]c4ncnc(N)c34)cc2F)c(=O)c(-c2ccc(F)cc2)c1
< 6.00

---

test: Cmax in Sprague-Dawley rat at 3 mg/kg, po via gavage measured up to 24 hrs by LC-MS analysis; format: ADME, organism-based; design: route oral, dose 3 mg/kg, time <=24; conditions: in vivo
parameterMeasured: Cmax (ng/mL)
Report only the number, with the unit ng/mL understood.

Look up Cmax for this compound: Nc1ncnc2[nH]cc(-c3cc(F)c(NC(=O)c4cn(CC5CCOCC5)cc(-c5ccc(F)cc5)c4=O)cc3F)c12
330

Look up Cmax for this compound: CC(C)n1cc(C(=O)Nc2cc(F)c(-c3c[nH]c4ncnc(N)c34)cc2F)c(=O)c(-c2ccc(F)cc2)c1
14100

---

molecular target: Mast/stem cell growth factor receptor Kit (Homo sapiens, UniProt P10721)
Sequence (P10721 whole entry): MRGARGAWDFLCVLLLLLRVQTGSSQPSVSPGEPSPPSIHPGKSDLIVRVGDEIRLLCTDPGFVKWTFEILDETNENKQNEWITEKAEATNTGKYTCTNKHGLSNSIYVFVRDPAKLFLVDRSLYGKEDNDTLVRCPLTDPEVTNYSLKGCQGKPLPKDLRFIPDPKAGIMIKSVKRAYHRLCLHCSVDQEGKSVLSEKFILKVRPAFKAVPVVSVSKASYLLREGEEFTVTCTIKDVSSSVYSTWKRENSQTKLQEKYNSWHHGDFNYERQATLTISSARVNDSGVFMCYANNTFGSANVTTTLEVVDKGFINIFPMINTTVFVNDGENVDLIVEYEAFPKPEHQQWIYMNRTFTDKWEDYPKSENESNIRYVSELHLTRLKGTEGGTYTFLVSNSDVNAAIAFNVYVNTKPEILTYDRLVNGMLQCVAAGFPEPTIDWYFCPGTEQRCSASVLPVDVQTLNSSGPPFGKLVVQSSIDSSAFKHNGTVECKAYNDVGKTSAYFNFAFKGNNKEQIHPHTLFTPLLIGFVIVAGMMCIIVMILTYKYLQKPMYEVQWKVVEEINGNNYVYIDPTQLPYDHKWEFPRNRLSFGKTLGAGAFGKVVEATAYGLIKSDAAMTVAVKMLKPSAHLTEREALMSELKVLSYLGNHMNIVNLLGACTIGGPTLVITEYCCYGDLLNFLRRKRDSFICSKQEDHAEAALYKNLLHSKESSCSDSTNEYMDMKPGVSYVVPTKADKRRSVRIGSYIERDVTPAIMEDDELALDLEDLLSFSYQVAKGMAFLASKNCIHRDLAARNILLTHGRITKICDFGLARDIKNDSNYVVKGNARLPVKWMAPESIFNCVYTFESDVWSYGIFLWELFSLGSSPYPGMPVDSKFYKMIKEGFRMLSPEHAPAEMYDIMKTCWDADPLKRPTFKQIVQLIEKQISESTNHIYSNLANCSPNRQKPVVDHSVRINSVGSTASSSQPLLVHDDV
parameterMeasured: IC50

Look up IC50 for this compound: CC(C)n1cc(C(=O)Nc2cc(F)c(-c3c[nH]c4ncnc(N)c34)cc2F)c(=O)c(-c2ccc(F)cc2)c1
> 1000 nM

---

tested on: MKN-45; assay: Antiproliferative activity against human MKN-45 cells incubated for 72 hrs; assay type: functional, cell-based; conditions: MKN-45, 72 h
Define the label as Fulfilled when IC50 is strictly less than 200 nM and as Not fulfilled in all remaining cases.

# check: IC50 < 200 nM for Cn1cc(-c2ccc(NC(=O)c3cn(CC4CCOCC4)cc(-c4ccc(F)cc4)c3=O)cc2)c2c(N)ncnc21
Not fulfilled

# check: IC50 < 200 nM for CC(C)n1cc(C(=O)Nc2cc(F)c(-c3c[nH]c4ncnc(N)c34)cc2F)c(=O)c(-c2ccc(F)cc2)c1
Fulfilled

# check: IC50 < 200 nM for Cn1cc(-c2ccc(NC(=O)c3cn(CC4CCOCC4)cc(-c4ccc(C(F)(F)F)cc4)c3=O)cc2)c2c(N)ncnc21
Not fulfilled

# check: IC50 < 200 nM for CN(C)C(=O)Cn1cc(C(=O)Nc2ccc(-c3cn(C)c4ncnc(N)c34)cc2)c(=O)c(-c2ccc(F)cc2)c1
Not fulfilled

# check: IC50 < 200 nM for Cn1cc(-c2ccc(NC(=O)c3cn(CC4CCOCC4)cc(-c4ccc(F)cc4F)c3=O)cc2)c2c(N)ncnc21
Not fulfilled

# check: IC50 < 200 nM for Nc1ncnc2[nH]cc(-c3cc(F)c(NC(=O)c4cn(CC5CCOCC5)cc(-c5ccc(F)cc5)c4=O)cc3F)c12
Fulfilled

---

Hi there, I'd appreciate the recorded IC50 for every entry that follows.
test system: MKN-45; assay: Antiproliferative activity against human MKN-45 cells incubated for 72 hrs; format: functional, cell-based; details: MKN-45, 72 h
Report only the number, with the unit µM understood.

Look up IC50 for this compound: CC(C)n1cc(C(=O)Nc2ccc(-c3cn(C)c4ncnc(N)c34)cc2)c(=O)c(-c2ccc(F)cc2)c1
0.0853

Look up IC50 for this compound: Cn1cc(-c2ccc(NC(=O)c3cn(CC4CCOCC4)cc(-c4ccc(F)cc4)c3=O)cc2F)c2c(N)ncnc21
0.0937

Look up IC50 for this compound: Cn1cc(-c2ccc(NC(=O)c3cn(CC4CCOCC4)cc(-c4ccc(F)cc4)c3=O)c(F)c2)c2c(N)ncnc21
0.209

Look up IC50 for this compound: Nc1ncnc2[nH]cc(-c3ccc(NC(=O)c4cn(CC5CCOCC5)cc(-c5ccc(F)cc5)c4=O)cc3)c12
0.0779

Look up IC50 for this compound: Cn1cc(-c2ccc(NC(=O)c3cn(CC4CCOCC4)cc(-c4ccc(Cl)cc4)c3=O)cc2)c2c(N)ncnc21
0.347

Look up IC50 for this compound: C[C@@H](Oc1cc(-c2cnn(C3CCNCC3)c2)cnc1N)c1c(Cl)ccc(F)c1Cl [CRIZOTINIB]
0.015

Look up IC50 for this compound: Cn1cc(-c2cc(F)c(NC(=O)c3cn(CC4CCOCC4)cc(-c4ccc(F)cc4)c3=O)cc2F)c2c(N)ncnc21
0.0537

Look up IC50 for this compound: Cn1cc(-c2ccc(NC(=O)c3cn(CC4CCOCC4)cc(-c4ccccc4)c3=O)cc2)c2c(N)ncnc21
0.318
